pIC50 reference
# Assay info: Antiproliferative activity against human SGC7901 cells measured after 72 hrs by MTT assay
# Format: functional, cell-based
# Test context: SGC-7901, 72 h
pIC50: −log10 of the molar value.

{"columns": ["Smiles record", "Censor symbol", "pIC50"],
 "data": [
  ["CO/N=c1/ssc(-c2cc(OC)c(OC)c(OC)c2)c1-c1ccc(OC)c([N+](=O)[O-])c1", "<", 4.00],
  ["COc1ccc(-c2ssc(=S)c2-c2cc(OC)c(OC)c(OC)c2)cc1N", "=", 6.35],
  ["COc1ccc(-c2c(-c3cc(OC)c(OC)c(OC)c3)ss/c2=N/O)cc1N", "=", 5.54],
  ["COc1ccc(-c2ss/c(=N/O)c2-c2cc(OC)c(OC)c(OC)c2)cc1O", "=", 6.70]
]}

Reference for the values: ChEMBL document CHEMBL3865818
